# target: T1, TSHR coated onto tubes (human, UniProt P16473 21-764, limits assumed)
# T1 construct: whole entry named; also called TSHR coated tubes; thyrotropin receptor
# method-summary: TSHR coated tubes, competitor 125I-5C9 IgG
readout: % inhib of 125I-5C9 IgG binding at 0.01 µg/mL (%)
Numbers only, in %.

Ask | Requested field: % inhib of 125I-5C9 IgG binding at 0.01 µg/mL. Item: 16E5 IgG (antibody, V domains shown) VH: DVQLVQSGPELVKPGASVKMSCKASGYSFTGYNMHWVKQSHGKSLEWIGYIDPYNGATSYNQKFEDKATLTVDKSSSTAYMQLNSLTSEDSAVYYCARRWDWDPYAMDYWGQGTSVTVSS VL: DILLTQSPAILSVSPGERVSFSCRASQSIGTSIHWYQQRTNGSPRLLIKYASESISGIFSRFSGSGSGTDFTLTINSVESEDIADYYCQQSNRWPLTFGAGTKLELKR
Reply | 20
